molecular target: SARS-CoV-2 Wuhan-Hu-1 NTD (SARS-CoV-2, UniProt P0DTC2 14-307); assay: cell-based or functional assay
property label: neutralisation IC50, WT (293TAce2)

Worked cases, answers included:
binder | property label | recorded result
JN012 (antibody, V domains shown) VH: QLQLQESGPGLVKPSETLSLTCTVSGGSISSGSYYWVWIRQPPGKGLEWIGSVYYSGTTYYNPSLKSRVTISIDTSKNQFSLRLSSVTAADTAVYYCATNNYSFLTGYYVLDYWGQGTLVTVSS VL: SYELTQPPSVSVSLGQMARITCSGEALPKTYAYWYQQKPGQFPVLVIYKDSERPSGIPERFSGSRSGTIVTLTISGVQAEDEADYYCLSTDISGTWVFGGGTKLTVL | neutralisation IC50, WT (293TAce2) | > 1 µg/mL
JN232 (antibody, V domains shown) VH: EVQLVQSGAEVKKPGESLNISCKGSGYSFTNYWIGWVRQMPGKGLEWMGIIYPGDSDTRYSPSFQGQVTISADKSISTVFLQWSSLKASDTAMYYCVRHDVLAVLMGGVTFDIWGQGTMVTVSS VL: EIVLTQSPGTLSLSPGERATLSCRASQSISSSYLAWYQQKSGQAPRLLIYGASSRATGIPDRFSGSGSGTDFTLTISRLEPEDFAVYYCQQYGGSPMYTFGQGTKLEIK | neutralisation IC50, WT (293TAce2) | > 1 µg/mL

Task: What neutralisation IC50, WT (293TAce2) value was documented for this binder, JN117 (antibody, V domains shown) VH: QVQLVQSGAEVKKPGASVKVSCKASGYTFTSYDINWVRQATGQGLEWMGWMNPNSGNTGYAQKFQGRVTMTRNTSISTAYMELSSLRSEDTAVYYCALGTTPWYYFDYWGQGTLVTVSS VL: SYELTQPPSVSVSPGQTARITCSGDALPKQYAYWYQQKPGQAPVLVIYKDSERPSGIPERFSGSSSGTTVTLTISGVQAEDEADYYCQSADSSGTYVFGTGTKVTVL ?
Output: > 1 µg/mL

Sourced from paper PMC9253517
